# Test system: MOLT-4
# ASSAY DETAILS: NCI tumour cell line growth inhibition, 48 h
Active and inactive are the calls of the source. Rule as the data show it: active = GI50 up to about 1.1 µM and inactive = higher.
Here, each record is paired with measured GI50 data.
VALUE TYPE: GI50

>  <COMPOUND>
Cc1c2ncccc2c(C)c2c1[nH]c1ccccc12

>  <EXPERIMENTAL RESULT>
2.02 µM (inactive)

$$$$
>  <COMPOUND>
O=C1Nc2ccccc2C1Cc1ccccc1 (stereo not given)

>  <EXPERIMENTAL RESULT>
> 100 µM (inactive)

$$$$
>  <COMPOUND>
C=C[C@@]1(C)CCC2(O)C(CCC3C2(C)CCC[C@@]3(C)COC(=O)CC(=O)OC)C1 (stereo not given in full)

>  <EXPERIMENTAL RESULT>
17.2 µM (inactive)

$$$$
>  <COMPOUND>
O=C(CNC(=O)OCc1ccccc1)NCCCCC(NC(=O)OCc1ccccc1)C(=O)O (stereo not given)

>  <EXPERIMENTAL RESULT>
> 100 µM (inactive)

$$$$
>  <COMPOUND>
N#Cc1ccc(/C=N/NC(=O)CSCC(=O)N/N=C/c2ccc(C#N)cc2)cc1

>  <EXPERIMENTAL RESULT>
> 100 µM (inactive)

$$$$
>  <COMPOUND>
COc1ccc(C2Oc3cc(OC)c(O)c(C)c3[C@H]2C)cc1 (stereo not given in full)

>  <EXPERIMENTAL RESULT>
33.3 µM (inactive)

$$$$
>  <COMPOUND>
CCCCCC(=O)NC(=S)Nc1nnn[nH]1

>  <EXPERIMENTAL RESULT>
> 100 µM (inactive)

$$$$
>  <COMPOUND>
COC(=O)/C=C/c1ccc2c(c1)CC1(C2)Cc2cc3c(cc2C1=O)CCC3 (stereo not given)

>  <EXPERIMENTAL RESULT>
> 100 µM (inactive)

$$$$
>  <COMPOUND>
CNC(=O)NC(CCCCNC(=O)OCc1ccccc1)C(=O)OCc1ccccc1 (stereo not given)

>  <EXPERIMENTAL RESULT>
19 µM (inactive)

$$$$
>  <COMPOUND>
CCCN(CCC)C(=S)Sc1nc(C)nc(N2CCN(c3nc(C)nc(SC(=S)N(CCC)CCC)c3[N+](=O)[O-])CC2)c1[N+](=O)[O-]

>  <EXPERIMENTAL RESULT>
3.23 µM (inactive)

$$$$

###

# System: SNB-78
# ASSAY DETAILS: NCI tumour cell line growth inhibition, 48 h
Calls of active or inactive are those of the source. Cut-off read from the data, not from the text of the source: active = GI50 up to about 1.1 µM and inactive = higher.

>  <COMPOUND>
Cc1cc2c(c(C#N)c1C)NC(=O)CCC2=O

>  <GI50>
> 100 µM (inactive)

$$$$
>  <COMPOUND>
C[C@]12CCC3[C@@H](CC[C@@H]4c5nonc5CC[C@]34C)C1CC[C@@H]2O (stereo not given in full)

>  <GI50>
38.6 µM (inactive)

$$$$
>  <COMPOUND>
COc1cc2c(Cc3cc(OCc4ccccc4)ccc3N)nccc2c(OC)c1OC

>  <GI50>
> 10 µM (inactive)

$$$$
>  <COMPOUND>
Nc1ccc2c(c1)CC1c3ccccc3C(C2)c2ccccc21

>  <GI50>
> 100 µM (inactive)

$$$$
>  <COMPOUND>
CS(=O)(=O)N(CCC#N)c1ccc(/C=N/NC(=O)CC(=O)Nc2cccc(Cl)c2)cc1

>  <GI50>
> 100 µM (inactive)

$$$$
>  <COMPOUND>
CCN(CC)CCNc1ccc2nnn3c4ccc([N+](=O)[O-])cc4c(=O)c1c23

>  <GI50>
9.71 µM (inactive)

$$$$
>  <COMPOUND>
COc1ccc2nc3cc(Cl)ccc3c(Sc3ccccc3[N+](=O)[O-])c2c1

>  <GI50>
41.2 µM (inactive)

$$$$
>  <COMPOUND>
NC(=O)/C(=N\NC(=O)C[n+]1ccccc1)C1NC(=O)NC1=O (stereo not given)

>  <GI50>
> 100 µM (inactive)

$$$$
>  <COMPOUND>
CCCN(CCC)C(=O)Cc1c2n(c3ccccc13)CCCc1ccccc1-2

>  <GI50>
12.3 µM (inactive)

$$$$
>  <COMPOUND>
Cc1cc(C)c(/C=N/NS(=O)(=O)c2ccccc2)c(C)c1

>  <GI50>
> 100 µM (inactive)

$$$$

###

# System: SK-MEL-5
# ASSAY DETAILS: NCI tumour cell line growth inhibition, 48 h
Calls of active or inactive are those of the source. No stated cut-off is given here; in the data, active = GI50 up to about 1.1 µM and inactive = higher.
Classes used: active, inactive

>  <MOLECULE>
COC(=O)C1CN=CN1CCc1ccccc1 (centres undefined)

>  <ASSIGNED LABEL>
inactive

$$$$
>  <MOLECULE>
Nc1nc(O)nc2snnc12

>  <ASSIGNED LABEL>
inactive

$$$$
>  <MOLECULE>
COc1ccc(C)cc(O)c1=O

>  <ASSIGNED LABEL>
inactive

$$$$
>  <MOLECULE>
Cc1cc(-c2ccccc2)nc(Nc2nc3ccccc3o2)n1

>  <ASSIGNED LABEL>
inactive

$$$$
>  <MOLECULE>
CCCCCCCCCCCCCCCCOP(=O)(O)OP(=O)(O)OCC1OC(n2cnc3c(N)ncnc32)C(O)C1O (centres undefined)

>  <ASSIGNED LABEL>
inactive

$$$$
>  <MOLECULE>
Oc1ccc(C(c2ccc(O)cc2)c2ccc(O)cc2)cc1

>  <ASSIGNED LABEL>
inactive

$$$$
>  <MOLECULE>
COC1C=C(Nc2cccc(Cl)c2)C(=O)C1 (centres undefined)

>  <ASSIGNED LABEL>
inactive

$$$$
>  <MOLECULE>
CCOc1cc(NC(C)=O)ccc1C(=O)N/N=C/c1ccco1

>  <ASSIGNED LABEL>
inactive

$$$$
>  <MOLECULE>
O=C1CC(=O)n2cnc3cccc(c32)N1

>  <ASSIGNED LABEL>
inactive

$$$$
>  <MOLECULE>
S=C1OC2CCCC[C@H]2O1 (some centres undefined)

>  <ASSIGNED LABEL>
inactive

$$$$
>  <MOLECULE>
C=CC1(c2ccc(Cl)c(Cl)c2)OCCO1

>  <ASSIGNED LABEL>
inactive

$$$$
>  <MOLECULE>
O=S(=O)(/C=C/C=C/S(=O)(=O)c1ccccc1)c1ccccc1

>  <ASSIGNED LABEL>
active

$$$$
>  <MOLECULE>
O=c1[nH]nc(Cc2ccc(Cl)cc2)n1Nc1ccccc1

>  <ASSIGNED LABEL>
inactive

$$$$
>  <MOLECULE>
CC(=O)NC(CCCNC(=O)NCCCl)C(=O)NCc1ccccc1 (centres undefined)

>  <ASSIGNED LABEL>
inactive

$$$$
>  <MOLECULE>
CCOc1ccc2ccccc2c1NC1=NCCO1

>  <ASSIGNED LABEL>
inactive

$$$$
>  <MOLECULE>
Cc1ccc(SC2C(C)(C)N(C(C)C)P2(=O)N(C(C)C)C(C)C)cc1 (centres undefined)

>  <ASSIGNED LABEL>
inactive

$$$$
>  <MOLECULE>
Cc1ccc(CS(=O)(=O)C/N=C2\Sc3ccccc3N\C2=C/C(=O)c2ccc(Cl)cc2)cc1

>  <ASSIGNED LABEL>
inactive

$$$$
>  <MOLECULE>
C=C1C(=O)OC2CC(C)C3C=CC(=O)C3CC12 (centres undefined)

>  <ASSIGNED LABEL>
inactive

$$$$
>  <MOLECULE>
OCC1OC(O)C(/N=C\c2ccc3c(c2)OCO3)C(O)C1O (centres undefined)

>  <ASSIGNED LABEL>
inactive

$$$$
>  <MOLECULE>
COC1(OC)N=C(N)C2(C#N)C(C)CC(=O)N(N(C)C)C12C#N (centres undefined)

>  <ASSIGNED LABEL>
inactive

$$$$
>  <MOLECULE>
O=C(COc1ccc(OCC(=O)N2C(=O)CN(c3ccccc3)C2=S)cc1)N1C(=O)CN(c2ccccc2)C1=S

>  <ASSIGNED LABEL>
inactive

$$$$
>  <MOLECULE>
CCCCCCCCCCCCCCCCOP(=O)(O)Oc1ccc(/C=C\c2ccc(OP(=O)(O)OCCCCCCCCCCCCCCCC)cc2)cc1

>  <ASSIGNED LABEL>
inactive

$$$$
>  <MOLECULE>
CN(C)S(=O)(=O)Nc1ccccn1

>  <ASSIGNED LABEL>
inactive

$$$$
>  <MOLECULE>
N=C(N)NS(=O)(=O)c1ccc(NC(=O)c2cccn3c(=O)c4ccccc4nc23)cc1

>  <ASSIGNED LABEL>
inactive

$$$$

###

# Test system: CCRF-CEM
# ASSAY DETAILS: NCI tumour cell line growth inhibition, 48 h
The source made the active and inactive calls. No stated cut-off is given here; in the data, active = GI50 up to about 1.1 µM and inactive = higher.

>  <CHEM SMILES>
CCN(CC)c1c(C(C)(C)C)c(=O)n2ccsc2c1OC(C)=O

>  <GI50>
49 µM (inactive)

$$$$
>  <CHEM SMILES>
c1ccc2c(c1)CCc1[nH]c3c(c1-2)-c1ccccc1CC3

>  <GI50>
39.4 µM (inactive)

$$$$
>  <CHEM SMILES>
COc1cc2oc(-c3ccc4c(c3)OCO4)c(OC)c(=O)c2c(OC)c1OC

>  <GI50>
> 100 µM (inactive)

$$$$
>  <CHEM SMILES>
N#Cc1c(N)c2c(c(-c3ccccc3)c1-c1ccccc1)C(=O)N(NC(=O)c1ccccc1)C2=O

>  <GI50>
42.3 µM (inactive)

$$$$
>  <CHEM SMILES>
CC(C)N1CN(c2ccccc2)C2(CCN(CCCC(=O)c3ccc(F)cc3)CC2)C1=O

>  <GI50>
1.83 µM (inactive)

$$$$

meta.source: ChEMBL document CHEMBL1201862
